experiment: Stability in PBS at pH 7.4 assessed as half life; type: physicochemical
outcome measure: half-life (days)
Your answer is read as days, so omit the unit and give the number.

Looking up `Nc1ncn(C[C@H](O)CO)c(=O)n1` , I see its half-life listed as 19.6
